FYI, the data here is from patent US9556158B2.

Conditions: pH 2.7, LogP, HPLC on reversed phase columns, pH 2.7, 0.1% formic acid in water / acetonitrile gradient; compounds of formula (V), Table 2
Please go through the items and note down their chromatographic logP.
Answers are plain numbers.

INSERT INTO measurements (compound, reported_result) VALUES
  ('CN(O)C(=N)/C(=N\OCc1cccc(Br)n1)c1ccccc1', 1.39),
  ('COCCN(O)C(=N)C(=NOCc1cccc(NC(=O)OC(C)(C)C)n1)c1ccccc1', 1.93),
  ('CN(O)C(=N)/C(=N\OCc1cccc(NC(=O)OC(C)(C)C)n1)c1ccccc1', 1.81),
  ('CN(O)C(=N)C(=NOCc1cccc(NC(=O)OC(C)(C)C)n1)c1cccc(F)c1F', 1.9),
  ('CN(O)C(=N)C(=NOCc1cccc(NC(=O)OC(C)(C)C)n1)c1ccccc1C(F)F', 2.43),
  ('CN(O)C(=N)/C(=N\OCc1cccc(NC(=O)OC(C)(C)C)n1)c1cccc(F)c1', 1.86);

Go through the items and report each one's chromatographic logP.
1. C#CCCOC(=O)Nc1cccc(CO/N=C(\C(=N)N(C)O)c2ccccc2)n1
2. CN(O)C(=N)C(=NOCc1cccc(N)n1)c1ccccc1

A.
1: 1.63; 2: 0.22
